System: Malme-3M
Assay: NCI tumour cell line growth inhibition, 48 h
Activity calls are given as the source filed them. Cut-off read from the data, not from the text of the source: active = GI50 up to about 1.1 µM and inactive = higher.
For each record, write down the corresponding GI50.

Per the reported Malme-3M data, `[N-]=[N+]=NC12CC3C4CC5CC3C(C1)C(C5)C4C2` has GI50 of > 100 µM (inactive)

Per the reported Malme-3M data, `N#Cc1[nH]c(=O)n(-c2ccccc2)c1N` has GI50 of > 10 µM (inactive)

Per the reported Malme-3M data, N/N=C(\C(=O)Nc1ccc(Cl)cc1Cl)C(c1cnc2ccccc2n1)[N+](=O)[O-] (configuration not stated) has GI50 of > 100 µM (inactive)

Per the reported Malme-3M data, OC1CC1Sc1ccccc1 (configuration not stated) has GI50 of 95.1 µM (inactive)

Per the reported Malme-3M data, `COc1ccc(CN2C(=O)C(=O)N(C)C2=O)c2ccccc12` has GI50 of > 10 µM (inactive)

Per the reported Malme-3M data, `Nc1nc(-c2cccnc2)cc(-c2cc(-c3cccnc3)nc(N)n2)n1` has GI50 of > 100 µM (inactive)

Per the reported Malme-3M data, `CC(=O)[C@@]1(O)CC[C@H]2[C@@H]3C[C@H](C)C4=CC(=O)CC[C@]4(C)[C@H]3[C@@H](O)C[C@@]21C` has GI50 of > 100 µM (inactive)

Per the reported Malme-3M data, `C#Cc1cc(-c2nc3ccccc3s2)ccc1N` has GI50 of 24.4 µM (inactive)

Per the reported Malme-3M data, `O=C(O)CCNc1ccccc1C(=O)O` has GI50 of > 100 µM (inactive)

Per the reported Malme-3M data, `COc1ccc(C[C@H]2COC(=O)[C@@H]2Cc2ccccc2)cc1OC` has GI50 of > 100 µM (inactive)

Per the reported Malme-3M data, CCOC(=O)[C@H]1Nc2ccc(OC)cc2C2c3ccccc3CC21 (some centres not stated) has GI50 of > 100 µM (inactive)

Per the reported Malme-3M data, `O=[N+]([O-])c1ccc2sc(/C=N/c3cnccn3)cc2c1` has GI50 of 37 µM (inactive)

Per the reported Malme-3M data, CC(=O)OC1CCC2(C)C(=CCC3C4CCC5(OC6CC(C)CN(C(C)=O)C6C5C)C(C)=C4C(=O)C32)C1 (configuration not stated) has GI50 of 15.2 µM (inactive)

Per the reported Malme-3M data, `COc1ccc2c(c1)C(=O)/C(=C/c1ccccc1)C2` has GI50 of > 100 µM (inactive)

Per the reported Malme-3M data, CC(C)(C)c1cc(C(O)(C(F)(F)F)C(F)(F)F)c2c(c1)C(C(F)(F)F)(C(F)(F)F)OC(c1ccccc1)(C(C)(C)C)N2 (configuration not stated) has GI50 of 7.06 µM (inactive)

Per the reported Malme-3M data, CCCC/C=C1\CCC(CN2CCCC2)C1=O (configuration not stated) has GI50 of 17.8 µM (inactive)

Per the reported Malme-3M data, COC1OC2=CCC3C(=O)NC(=O)C3C2[C@H](OCc2ccccc2)C1OCc1ccccc1 (some centres not stated) has GI50 of 1.77 µM (inactive)

Per the reported Malme-3M data, O=C(C[C@H](NC(=O)OCc1ccccc1)C(=O)NC1Cc2ccccc2OC1=O)OCc1ccccc1 (some centres not stated) has GI50 of > 100 µM (inactive)

Per the reported Malme-3M data, `Cc1ccc(/C=C/C(=O)c2sc(-c3cccnc3)nc2C)cc1` has GI50 of > 100 µM (inactive)

Per the reported Malme-3M data, `N=C(N)NS(=O)(=O)c1ccc(NCc2cccc3c(=O)c4ccc(Cl)cc4oc23)cc1` has GI50 of 4.59 µM (inactive)

Per the reported Malme-3M data, `NCCNc1cccc2ccccc12` has GI50 of > 100 µM (inactive)

Per the reported Malme-3M data, `CCc1nc(N)nc(N)c1-c1ccc2c(c1)nnn2CCc1ccccc1` has GI50 of 19.5 µM (inactive)
